# Procedure Details: Oral pharmacokinetic (bioavailability) study in rats, non-compartmental analysis
# Format: in vivo, Wistar rats
# Run Conditions: male, Wistar, rat, plasma, po, 15 mg/kg
Metric: Tmax (h)
Report the figure in h without appending any unit label.

Entry CCc1cc2c(cc1N1CCC(N3CCOCC3)CC1)C(C)(C)c1[nH]c3cc(C#N)ccc3c1C2=O [ALB, Alectinib] has what Tmax?
7.33

====

# Procedure Details: Oral pharmacokinetic (bioavailability) study in rats, non-compartmental analysis
# Type: in vivo, Wistar rats
# Run Conditions: male, Wistar, rat, plasma, po, 15 mg/kg; read-out: AUC0-48 (AUC-48)
Metric: AUC(0-t)
// unit must come after the numeric part

Entry CCc1cc2c(cc1N1CCC(N3CCOCC3)CC1)C(C)(C)c1[nH]c3cc(C#N)ccc3c1C2=O has what AUC(0-t)?
5950 ng·h/mL
